# experimental target: wild-type PAH (Homo sapiens (Human), UniProt P00439)
# Sequence (P00439 whole entry): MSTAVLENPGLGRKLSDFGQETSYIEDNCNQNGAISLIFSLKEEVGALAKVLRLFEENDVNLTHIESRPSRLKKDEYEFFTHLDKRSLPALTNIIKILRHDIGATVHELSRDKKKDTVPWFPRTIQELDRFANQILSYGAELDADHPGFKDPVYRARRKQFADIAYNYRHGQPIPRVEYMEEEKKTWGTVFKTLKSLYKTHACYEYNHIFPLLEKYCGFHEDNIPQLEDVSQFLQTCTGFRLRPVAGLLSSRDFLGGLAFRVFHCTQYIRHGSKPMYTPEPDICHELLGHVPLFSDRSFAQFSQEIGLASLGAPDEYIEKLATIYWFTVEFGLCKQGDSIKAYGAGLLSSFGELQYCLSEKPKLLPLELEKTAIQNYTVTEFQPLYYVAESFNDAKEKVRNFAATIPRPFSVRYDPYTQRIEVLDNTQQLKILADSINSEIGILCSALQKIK
# assay method text: Phenylalanine hydroxylase residual protein amount (dot blot, COS-7 lysates)
# Format: cell-based
# stated conditions: COS-7 cells, compound 10 μM (sepiapterin 5 μM), 48 h; read-out: PAH protein level (immune blot signal) WT PAH Mean
# Procedure: 3. Phenylalanine Hydroxylase Residual Protein Amount The analysis of the residual PAH protein amount was based on the method described in Gersting S. W. et al., Human Molecular Genetics, 2010, 19(10), 2039-2049 with modifications. […] 2 μl of the lysate were dropped onto the nitrocellulose membrane. […] Blots were visualized with Pierce™ ECL substrate (ThermoFisher Scientific, Cat No. 32106) and chemiluminescence was monitored with a DIANA III Imaging system or ChemiDoc™ MP Imaging System (BioRad). […]
Structures can show the parent of a compound that is named as a salt.
quantity measured: PAH protein level (% of control) at 10 µM (%)
Expressed in %, but write only the number.

Solved cases below.
> print(dat)
                                   compound  reported.measurement
1  CCC[S+]([O-])c1ccc2[nH]c(NC(=O)OC)nc2c1 (centres unmarked)                   154
2             Nc1cc(N2CCCCC2)nc(N)[n+]1[O-]                   127
3  CC(C)[C@H](N)C(=O)OCCOCn1cnc2c(=O)[nH]c(N)nc21 [Valacyclovir HCl]                   146
4  CN1CCc2cc3c(cc2C1O)OCO3 (centres unmarked) [Hydrastinine HCl]                   164

Can you share its PAH protein level (% of control) at 10 µM? I mean this compound: Nc1nc(N)c2nc(-c3ccccc3)c(N)nc2n1 110
